Exercise: state measured IC50 for each of the compounds provided.

Per the reported PIK3CG (human) (UniProt P48736) data, CC(C)NC(=O)Nc1cccc(CNC(=O)Nc2nc3c(s2)-c2nc(-c4ccccc4Cl)ncc2CC3)c1 has IC50 of < 0.8 µM

PIK3CG (human) (UniProt P48736) data for NC(=O)Nc1nc2c(s1)-c1nc(-c3cccc(F)c3Cl)ncc1CC2 ; its IC50: < 0.8 µM

Case CCN(CC)CCNC(=O)Nc1nc2c(s1)-c1nc(-c3ccccc3Cl)ncc1CC2 , PIK3CG (human) (UniProt P48736), IC50 recorded as < 0.8 µM

Entry Cn1cc(CNC(=O)Nc2nc3c(s2)-c2nc(-c4ccccc4Br)ncc2CC3)cn1 : IC50 on PIK3CG (human) (UniProt P48736) = < 0.8 µM

Measured IC50 (PIK3CG (human) (UniProt P48736)), entry O=C(Nc1nc2c(s1)-c1nc(-c3ccccc3Cl)ncc1CC2)N1CC[C@@H](NC(=O)N2CCCC2)C1 : < 0.8 µM

// compound CC(C)(C)OC(=O)NCc1ccccc1NC(=O)Nc1nc2c(s1)-c1nc(-c3ccccc3Cl)ncc1CC2 , assay PIK3CG (human) (UniProt P48736), IC50 value: < 0.8 µM

Form: item CC(C)COC(=O)N[C@H]1CCN(C(=O)Nc2nc3c(s2)-c2nc(-c4ccccc4Cl)ncc2CC3)C1 ; test system PIK3CG (human) (UniProt P48736); IC50: < 0.8 µM

The compound CCn1ccc(CNC(=O)Nc2nc3c(s2)-c2nc(-c4ccccc4Cl)ncc2CC3)n1 on PIK3CG (human) (UniProt P48736): IC50 was < 0.8 µM

For O=C(NCc1cccc(C(F)(F)F)c1)Nc1nc2c(s1)-c1nc(-c3ccccc3Cl)ncc1CC2 on PIK3CG (human) (UniProt P48736), measured IC50 was < 0.8 µM

With PIK3CG (human) (UniProt P48736) as the test system, O=C(Nc1ccc(N2CCNCC2)cc1)Nc1nc2c(s1)-c1nc(-c3ccccc3Cl)ncc1CC2 showed IC50 of < 0.8 µM

# value of IC50, PIK3CG (human) (UniProt P48736), item CCc1csc(CCNC(=O)Nc2nc3c(s2)-c2nc(-c4ccccc4F)ncc2CC3)n1 = < 0.8 µM

The reported PIK3CG (human) (UniProt P48736) IC50 of COc1ccc(OC)c(CNC(=O)Nc2nc3c(s2)-c2nc(-c4ccccc4Cl)ncc2CC3)c1 is < 0.8 µM

IC50 of CNC(=O)Nc1nc2c(s1)-c1nc(-c3ccccc3F)ncc1CC2 , assay on PIK3CG (human) (UniProt P48736), is < 0.8 µM

Note to self: IC50 of CN(C)C(=O)CCNC(=O)Nc1nc2c(s1)-c1nc(-c3ccccc3Cl)ncc1CC2 with PIK3CG (human) (UniProt P48736) was < 0.8 µM

# lookup: O=C(N[C@H]1CCN(C(=O)Nc2nc3c(s2)-c2nc(-c4ccccc4Cl)ncc2CC3)C1)C1CC1 on PIK3CG (human) (UniProt P48736), IC50 = < 0.8 µM

Tested system PIK3CG (human) (UniProt P48736); IC50 recorded for NC(=O)N1Cc2ccc(CNC(=O)Nc3nc4c(s3)-c3nc(-c5ccccc5Cl)ncc3CC4)cc2C1 was < 0.8 µM

I looked up CC(C)OC(=O)N[C@H]1CCN(C(=O)Nc2nc3c(s2)-c2nc(-c4ccccc4Cl)ncc2CC3)C1 and its IC50 for PIK3CG (human) (UniProt P48736) was < 0.8 µM

The compound O=C(NCc1ccccc1)Nc1nc2c(s1)-c1nc(-c3ccccc3Cl)ncc1CC2 on PIK3CG (human) (UniProt P48736): IC50 was < 0.8 µM

For O=C(Nc1nc2c(s1)-c1nc(-c3ccccc3Cl)ncc1CC2)NC1CCC(N2CCNC2=O)CC1 (centres undefined) on PIK3CG (human) (UniProt P48736), measured IC50 was < 0.8 µM
